Target: Solute carrier family 15 member 2 (Rattus norvegicus)
Sequence (Q63424 whole entry): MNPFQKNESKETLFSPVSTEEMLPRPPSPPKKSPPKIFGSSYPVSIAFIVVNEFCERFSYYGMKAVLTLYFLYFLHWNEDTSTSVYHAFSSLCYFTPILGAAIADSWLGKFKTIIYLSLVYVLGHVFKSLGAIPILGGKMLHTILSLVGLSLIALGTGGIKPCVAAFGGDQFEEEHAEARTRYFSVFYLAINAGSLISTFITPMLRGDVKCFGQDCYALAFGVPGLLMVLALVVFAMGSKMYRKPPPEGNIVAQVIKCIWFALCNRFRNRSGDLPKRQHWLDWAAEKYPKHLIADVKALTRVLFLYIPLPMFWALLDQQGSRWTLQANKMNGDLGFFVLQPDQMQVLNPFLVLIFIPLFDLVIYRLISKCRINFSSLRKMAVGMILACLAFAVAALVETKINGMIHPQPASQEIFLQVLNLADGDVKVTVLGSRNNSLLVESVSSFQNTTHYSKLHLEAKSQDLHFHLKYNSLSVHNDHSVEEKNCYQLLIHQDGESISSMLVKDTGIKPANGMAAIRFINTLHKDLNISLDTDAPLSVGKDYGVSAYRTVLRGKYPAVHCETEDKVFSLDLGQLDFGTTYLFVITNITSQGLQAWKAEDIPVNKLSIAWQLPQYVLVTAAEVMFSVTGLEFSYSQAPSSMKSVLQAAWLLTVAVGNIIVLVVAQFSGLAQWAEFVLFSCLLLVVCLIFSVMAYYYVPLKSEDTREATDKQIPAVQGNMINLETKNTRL
Assay: TP_TRANSPORTER: inhibition of Gly-Sar uptake (Gly-Sar: 5 uM) in SKPT cells
For each record, write down the corresponding pIC50.
Scale: pIC50 equals -log10([C]), with [C] in mol/L.

The compound C=CC1=C(C(=O)O)N2C(=O)[C@@H](NC(=O)/C(=N\O)c3csc(N)n3)[C@H]2SC1 [CEFDINIR] showed pIC50 equal to 2.00

The compound C=CC1=C(C(=O)O)N2C(=O)[C@@H](NC(=O)/C(=N\OCC(=O)O)c3csc(N)n3)[C@H]2SC1 [CEFIXIME] showed pIC50 equal to 2.49

====

Target: Solute carrier family 15 member 1 (Homo sapiens)
Sequence (P46059 whole entry): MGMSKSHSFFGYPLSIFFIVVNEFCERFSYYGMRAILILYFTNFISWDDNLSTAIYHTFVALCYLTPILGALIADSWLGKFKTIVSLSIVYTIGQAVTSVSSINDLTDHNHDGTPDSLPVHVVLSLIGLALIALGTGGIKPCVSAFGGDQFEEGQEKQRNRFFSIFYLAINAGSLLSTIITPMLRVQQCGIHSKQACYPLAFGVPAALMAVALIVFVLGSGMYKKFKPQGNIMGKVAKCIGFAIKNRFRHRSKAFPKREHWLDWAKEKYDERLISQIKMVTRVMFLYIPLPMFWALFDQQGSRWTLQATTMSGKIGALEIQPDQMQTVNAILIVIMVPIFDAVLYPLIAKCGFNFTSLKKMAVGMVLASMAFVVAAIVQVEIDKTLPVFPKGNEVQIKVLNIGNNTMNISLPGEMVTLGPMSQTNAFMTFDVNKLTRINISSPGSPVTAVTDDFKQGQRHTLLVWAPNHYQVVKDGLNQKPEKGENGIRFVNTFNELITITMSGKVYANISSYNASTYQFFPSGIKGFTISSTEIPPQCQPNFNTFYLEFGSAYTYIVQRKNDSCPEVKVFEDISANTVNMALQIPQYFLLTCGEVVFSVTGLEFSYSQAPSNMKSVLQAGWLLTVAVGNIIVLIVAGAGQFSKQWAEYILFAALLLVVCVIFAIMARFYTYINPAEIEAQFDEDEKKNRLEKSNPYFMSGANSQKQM
Assay: TP_TRANSPORTER: inhibition of Gly-Sar uptake (Gly-Sar: 5 uM) in Caco-2 cells
recorded.endpoint: pIC50
Scale: pIC50 equals -log10([C]), with [C] in mol/L.

The compound `C=CC1=C(C(=O)O)N2C(=O)[C@@H](NC(=O)/C(=N\OCC(=O)O)c3csc(N)n3)[C@H]2SC1` showed pIC50 equal to 2.00

====

Target: Solute carrier family 15 member 2 (Rattus norvegicus)
Sequence (Q63424 whole entry): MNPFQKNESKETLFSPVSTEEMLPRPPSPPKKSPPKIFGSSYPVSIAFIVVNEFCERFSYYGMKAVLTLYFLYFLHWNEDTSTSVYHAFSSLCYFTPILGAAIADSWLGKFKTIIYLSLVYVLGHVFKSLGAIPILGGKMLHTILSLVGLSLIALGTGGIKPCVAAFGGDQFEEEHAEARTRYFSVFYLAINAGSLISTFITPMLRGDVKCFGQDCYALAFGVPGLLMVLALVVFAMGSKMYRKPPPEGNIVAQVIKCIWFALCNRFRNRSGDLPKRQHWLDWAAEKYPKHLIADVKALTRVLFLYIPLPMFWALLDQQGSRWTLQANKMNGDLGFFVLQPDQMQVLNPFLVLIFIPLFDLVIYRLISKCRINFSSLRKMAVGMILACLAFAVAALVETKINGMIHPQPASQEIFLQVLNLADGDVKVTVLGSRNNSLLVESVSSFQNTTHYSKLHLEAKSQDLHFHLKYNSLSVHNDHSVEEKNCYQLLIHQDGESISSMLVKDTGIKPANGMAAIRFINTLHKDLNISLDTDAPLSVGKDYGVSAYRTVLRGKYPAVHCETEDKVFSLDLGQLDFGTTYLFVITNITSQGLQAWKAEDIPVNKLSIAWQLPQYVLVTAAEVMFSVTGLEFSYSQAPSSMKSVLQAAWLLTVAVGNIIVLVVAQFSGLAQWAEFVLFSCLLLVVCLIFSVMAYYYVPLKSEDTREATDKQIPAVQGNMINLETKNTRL
Assay: TP_TRANSPORTER: inhibition of Gly-Sar uptake in SKPT cells
recorded.endpoint: pKi
Scale: pKi equals -log10([C]), with [C] in mol/L.

The compound `Nc1nc(/C(=C/CC(=O)O)C(=O)N[C@@H]2C(=O)N3C(C(=O)O)=CCS[C@H]23)cs1` showed pKi equal to 3.42

====

Target: Solute carrier family 15 member 1 (Homo sapiens, UniProt P46059)
Experiment: TP_TRANSPORTER: inhibition of Gly-Sar uptake in PEPT1-expressing HeLa cells
Type: functional, cell-based
recorded.endpoint: Ki (µM)
Kindly provide the numeric value in µM only, without the unit symbol.

The compound Nc1nc(/C(=C/CC(=O)O)C(=O)N[C@@H]2C(=O)N3C(C(=O)O)=CCS[C@H]23)cs1 [CEFTIBUTEN] showed Ki equal to 710

====

Molecular target: Solute carrier family 15 member 2 (Homo sapiens, UniProt Q16348)
Sequence (Q16348 whole entry): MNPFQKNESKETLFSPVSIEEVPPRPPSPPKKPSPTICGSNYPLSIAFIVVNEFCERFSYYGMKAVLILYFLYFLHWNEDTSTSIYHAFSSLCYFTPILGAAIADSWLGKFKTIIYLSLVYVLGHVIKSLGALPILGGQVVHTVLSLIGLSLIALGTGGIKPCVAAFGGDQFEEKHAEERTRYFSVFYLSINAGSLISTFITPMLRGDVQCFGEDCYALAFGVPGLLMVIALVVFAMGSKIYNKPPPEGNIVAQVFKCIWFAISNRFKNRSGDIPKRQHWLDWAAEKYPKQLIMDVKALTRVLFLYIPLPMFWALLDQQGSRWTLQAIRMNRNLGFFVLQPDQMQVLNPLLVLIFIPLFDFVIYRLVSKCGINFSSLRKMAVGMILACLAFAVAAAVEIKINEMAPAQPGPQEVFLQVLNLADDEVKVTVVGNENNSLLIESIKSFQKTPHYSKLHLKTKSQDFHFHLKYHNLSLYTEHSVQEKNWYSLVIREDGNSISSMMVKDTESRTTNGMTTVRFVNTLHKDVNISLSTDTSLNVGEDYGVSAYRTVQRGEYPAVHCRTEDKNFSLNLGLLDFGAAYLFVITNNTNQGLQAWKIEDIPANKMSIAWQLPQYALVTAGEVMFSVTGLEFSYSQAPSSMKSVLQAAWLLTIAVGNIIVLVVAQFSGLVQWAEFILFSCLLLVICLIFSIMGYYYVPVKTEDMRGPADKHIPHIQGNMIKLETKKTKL
Experiment: TP_TRANSPORTER: inhibition of Gly-Sar uptake in PEPT2-expressing HeLa cells
recorded.endpoint: Ki (µM)
Kindly provide the numeric value in µM only, without the unit symbol.

The compound `Nc1nc(/C(=C/CC(=O)O)C(=O)N[C@@H]2C(=O)N3C(C(=O)O)=CCS[C@H]23)cs1` showed Ki equal to 90

Data credit: ChEMBL document CHEMBL2074142
